# Tested on: SCC-25 cells
# method summary: MTT anticancer assay in SCC-25 cells
# Type: cell-based
# test settings: Homo sapiens, SCC-25, 24 h, MTT, 24 h
Reported IC50 values are given for each entry in this list.
measurement type: IC50 (µM)

O=C(Nc1ccc(N2CCSCC2)c(F)c1)c1ccc2c(c1)COB2O : 83
O=C(Nc1ccc(N2CCN(c3ccc(F)cc3)CC2)c(F)c1)c1ccc(B(O)O)cc1 : 79.1
O=C(Nc1ccc(N2CCOCC2)c(F)c1)c1ccc(B(O)O)cc1 : 74.1
O=C(Nc1ccc(N2CCN(c3ncccn3)CC2)c(F)c1)c1ccc(B(O)O)cc1 : 133
O=c1[nH]cc(F)c(=O)[nH]1 [5-fluorouracil, reference compound] : 1800
O=C(Nc1ccc(N2CCCCCC2)c(F)c1)c1cccc(B(O)O)c1 : 67.6
O=C(Nc1ccc(N2CCN(c3ccccn3)CC2)c(F)c1)c1cccc(B(O)O)c1 : 79.1
O=C(Nc1ccc(N2CCN(c3ccc(F)cc3)CC2)c(F)c1)c1cccc(B(O)O)c1 : 59.1
O=C(Nc1ccc(N2CCN(c3ccccn3)CC2)c(F)c1)c1ccc(B(O)O)cc1 : 45
O=C(Nc1ccc(N2CCCCCC2)c(F)c1)c1ccc(B(O)O)cc1 : 85.1

* * *

# System: T. rubrum ATCC 28189
Reported MIC90 values are given for each entry in this list.
measurement type: MIC90 (µM)

CN(C/C=C/C#CC(C)(C)C)Cc1cccc2ccccc12 [Terbinafine, reference compound] : 0.0001
O=C(Nc1ccc(N2CCN(c3ccc(F)cc3)CC2)c(F)c1)c1ccc(B(O)O)cc1 : 286
O=C(Nc1ccc(N2CCN(c3ncccn3)CC2)c(F)c1)c1cccc(B(O)O)c1 : 297
O=C(Nc1ccc(N2CCCCCC2)c(F)c1)c1ccc(B(O)O)cc1 : 88

* * *

# Tested on: T. rubrum ATCC 28189
Reported MIC90 values are given for each entry in this list.
measurement type: MIC90 (µM)

O=C(Nc1ccc(N2CCN(c3ccc(F)cc3)CC2)c(F)c1)c1cccc(B(O)O)c1 : 286
O=C(Nc1ccc(N2CCSCC2)c(F)c1)c1ccc2c(c1)COB2O : 336
O=C(Nc1ccc(N2CCN(c3ccccn3)CC2)c(F)c1)c1ccc2c(c1)COB2O : 289
O=C(Nc1ccc(N2CCN(c3ncccn3)CC2)c(F)c1)c1ccc(B(O)O)cc1 : 297
O=C(Nc1ccc(N2CCOCC2)c(F)c1)c1ccc(B(O)O)cc1 : 363
O=C(Nc1ccc(N2CCN(c3ccccn3)CC2)c(F)c1)c1cccc(B(O)O)c1 : 297
O=C(Nc1ccc(N2CCN(c3ccccn3)CC2)c(F)c1)c1ccc(B(O)O)cc1 : 297
O=C(Nc1ccc(N2CCOCC2)c(F)c1)c1cccc(B(O)O)c1 : 363
O=C(Nc1ccc(N2CCSCC2)c(F)c1)c1ccc(B(O)O)cc1 : 347
O=C(Nc1ccc(N2CCCCCC2)c(F)c1)c1cccc(B(O)O)c1 : 42
O=C(Nc1ccc(N2CCSCC2)c(F)c1)c1cccc(B(O)O)c1 : 347

* * *

# System: NOK-si cells
# method summary: MTT cytotoxicity assay in normal oral keratinocytes NOK-si
# Type: cell-based
# test settings: Keratinocyte, 24 h, read-out: NOK-si IC50
measurement type: CC50 (µM)

O=C(Nc1ccc(N2CCOCC2)c(F)c1)c1ccc(B(O)O)cc1 : 77.1
O=C(Nc1ccc(N2CCCCCC2)c(F)c1)c1ccc(B(O)O)cc1 : 127
O=C(Nc1ccc(N2CCSCC2)c(F)c1)c1ccc2c(c1)COB2O : 65.8
O=C(Nc1ccc(N2CCCCCC2)c(F)c1)c1cccc(B(O)O)c1 : 129
O=C(Nc1ccc(N2CCN(c3ccccn3)CC2)c(F)c1)c1ccc(B(O)O)cc1 : 221
O=C(Nc1ccc(N2CCN(c3ccccn3)CC2)c(F)c1)c1cccc(B(O)O)c1 : 110
O=C(Nc1ccc(N2CCN(c3ncccn3)CC2)c(F)c1)c1ccc(B(O)O)cc1 : 134
O=C(Nc1ccc(N2CCSCC2)c(F)c1)c1ccc(B(O)O)cc1 : 149
O=C(Nc1ccc(N2CCN(c3ccc(F)cc3)CC2)c(F)c1)c1ccc(B(O)O)cc1 : 123
